molecular target: UniProtKB Q8WUI4; experiment: Inhibition of recombinant human HDAC7 using HDAC substrate incubated for 30 mins by fluorescence based assay
Sequence (Q8WUI4 whole entry): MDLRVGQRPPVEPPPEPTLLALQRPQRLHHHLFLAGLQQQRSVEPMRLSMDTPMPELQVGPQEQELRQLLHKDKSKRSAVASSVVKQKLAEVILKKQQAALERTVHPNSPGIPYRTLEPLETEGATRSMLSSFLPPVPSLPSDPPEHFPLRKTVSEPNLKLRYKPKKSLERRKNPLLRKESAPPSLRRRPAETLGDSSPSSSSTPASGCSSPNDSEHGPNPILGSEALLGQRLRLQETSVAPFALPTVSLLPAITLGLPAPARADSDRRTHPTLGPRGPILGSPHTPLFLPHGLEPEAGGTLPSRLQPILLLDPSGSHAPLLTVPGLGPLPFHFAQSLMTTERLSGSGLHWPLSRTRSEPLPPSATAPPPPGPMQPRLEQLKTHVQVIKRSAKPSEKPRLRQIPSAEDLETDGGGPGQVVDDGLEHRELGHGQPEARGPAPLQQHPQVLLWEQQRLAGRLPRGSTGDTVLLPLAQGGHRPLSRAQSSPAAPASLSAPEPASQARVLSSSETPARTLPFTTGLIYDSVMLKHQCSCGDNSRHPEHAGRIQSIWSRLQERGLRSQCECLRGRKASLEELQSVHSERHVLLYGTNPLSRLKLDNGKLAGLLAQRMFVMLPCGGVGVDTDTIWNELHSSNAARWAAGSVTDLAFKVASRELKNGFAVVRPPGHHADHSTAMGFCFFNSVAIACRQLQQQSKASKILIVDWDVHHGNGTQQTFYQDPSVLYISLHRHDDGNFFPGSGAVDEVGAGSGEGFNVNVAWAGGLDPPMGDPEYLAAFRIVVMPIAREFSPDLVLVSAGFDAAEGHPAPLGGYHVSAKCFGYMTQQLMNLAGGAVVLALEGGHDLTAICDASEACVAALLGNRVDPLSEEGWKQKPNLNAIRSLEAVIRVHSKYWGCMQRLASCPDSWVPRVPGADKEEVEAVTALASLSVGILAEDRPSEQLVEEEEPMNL
pIC50: −log10 of the molar value.
MEASURED ENDPOINT: pIC50

[[record]]
compound_structure_string = "Nc1ccccc1NC(=O)c1ccc(NC(=O)c2n[nH]cc2NC(=O)c2c(Cl)cccc2Cl)cc1"
measured_endpoint = "pIC50"
observed_result = "< 6.00"


###

assay: Clearance in Sprague-Dawley rat at 25 mg/kg, po measured upto 8 hrs by LC/MS-MS analysis; type: ADME, organism-based; conditions: in vivo
MEASURED ENDPOINT: CL/F (mL/min/kg)

[[record]]
compound_structure_string = "Nc1ccccc1NC(=O)c1ccc(NC(=O)c2n[nH]cc2NC(=O)c2c(Cl)cccc2Cl)cc1"
measured_endpoint = "CL/F"
unit_descriptor = "mL/min/kg"
observed_result = 28.8

